// data source = paper PMC11721736

- experimental_target: human albumin (Homo sapiens)
- Construct: purchased BB-NCIPD Ltd., Sofia, Bulgaria Human albumin 20%—BB, 200 g/L
- Sequence (P02768 25-609): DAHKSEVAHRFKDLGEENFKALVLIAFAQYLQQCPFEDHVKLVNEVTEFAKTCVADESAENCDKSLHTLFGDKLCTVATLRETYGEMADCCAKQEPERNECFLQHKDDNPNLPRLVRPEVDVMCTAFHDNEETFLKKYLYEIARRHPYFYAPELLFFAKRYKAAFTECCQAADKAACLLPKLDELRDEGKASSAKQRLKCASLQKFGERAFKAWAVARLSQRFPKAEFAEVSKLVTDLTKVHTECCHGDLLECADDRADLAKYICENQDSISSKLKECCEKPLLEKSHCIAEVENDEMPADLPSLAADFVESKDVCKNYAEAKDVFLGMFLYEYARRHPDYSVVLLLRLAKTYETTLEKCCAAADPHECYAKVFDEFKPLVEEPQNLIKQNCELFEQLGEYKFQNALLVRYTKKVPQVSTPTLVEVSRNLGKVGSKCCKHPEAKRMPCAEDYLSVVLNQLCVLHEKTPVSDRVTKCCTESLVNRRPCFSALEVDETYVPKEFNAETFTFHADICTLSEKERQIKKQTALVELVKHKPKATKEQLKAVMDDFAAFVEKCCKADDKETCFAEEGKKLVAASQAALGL
- test_description: Inhibition of albumin denaturation (IAD), in vitro anti-inflammatory activity
- Assay type: biochemical
- test_context: human albumin 1%, heated at 70 °C for 15 min, turbidity at 660 nm; read-out: IAD IC50 ± SD (converted)
- Description: In vitro analysis of anti-inflammatory activity was assessed as the inhibition of albumin denaturation (IAD). The analysis was performed according to Manolov’s method, with minor modifications. The experiment was performed with human albumin. […] After cooling, the turbidity was measured at 660 nm with a spectrophotometer (Camspec M508, Leeds, UK). […] The percentage inhibition of albumin denaturation (IAD) was calculated against the control. […]
observed_property: IC50 (µM)

Take a look at these entries with their results.
INSERT INTO assay_data (molecule, experimental_value) VALUES
  ('CC(C(=O)Nc1nc2ccccc2s1)c1ccc(-c2ccccc2)c(F)c1 (centres unmarked) [Compound 3e]', 157),
  ('COc1ccc2cc(C(C)C(=O)Nc3nc4ccccc4s3)ccc2c1 (centres unmarked) [Compound 3c]', 178),
  ('CC(C(=O)Nc1nc2ccccc2s1)c1ccc2c(c1)[nH]c1ccc(Cl)cc12 (centres unmarked) [Compound 3d]', 160);

a: CC(C(=O)Nc1nc2ccccc2s1)c1cccc(C(=O)c2ccccc2)c1 (centres unmarked) [Compound 3b]
b: CC(C)Cc1ccc(C(C)C(=O)Nc2nc3ccccc3s2)cc1 (centres unmarked) [Compound 3a]
In: Between a and b , which one has the lower reported IC50 value? # reply format: chosen label
Out: a

---

- test_description: Hydroxyl radical scavenging activity (HRSA)
- test_context: 1 h at 37 °C, absorbance at 510 nm
observed_property: HRSA IC50 ± SD (µg/mL)

Take a look at these entries with their results.
INSERT INTO assay_data (molecule, observed_property, experimental_value) VALUES
  ('CC(C)Cc1ccc(C(C)C(=O)Nc2nc3ccccc3s2)cc1 (stereo not shown)', 'HRSA IC50 ± SD', 375.06),
  ('CC(C(=O)Nc1nc2ccccc2s1)c1ccc(-c2ccccc2)c(F)c1 (stereo not shown)', 'HRSA IC50 ± SD', 429.59),
  ('CC(C(=O)Nc1nc2ccccc2s1)c1cccc(C(=O)c2ccccc2)c1 (stereo not shown)', 'HRSA IC50 ± SD', 285.13),
  ('COc1ccc2cc(C(C)C(=O)Nc3nc4ccccc4s3)ccc2c1 (stereo not shown)', 'HRSA IC50 ± SD', 317.91);

P: O=C1O[C@H]([C@@H](O)CO)C(O)=C1O [AA, ascorbic acid, reference compound]
Q: CC(C(=O)Nc1nc2ccccc2s1)c1ccc2c(c1)[nH]c1ccc(Cl)cc12 (stereo not shown)
In: When P and Q are compared, which has the higher number for HRSA IC50 ± SD? # reply format: chosen label
Out: Q

---

- test_description: Hydrogen peroxide scavenging activity (HPSA)
- test_context: 10 min at 37 °C, absorbance at 230 nm
observed_property: HPSA IC50 ± SD (µg/mL)

Take a look at these entries with their results.
INSERT INTO measurements (compound, observed_property, experimental_value) VALUES
  ('CC(C(=O)Nc1nc2ccccc2s1)c1ccc2c(c1)[nH]c1ccc(Cl)cc12 (stereo not shown) [Compound 3d]', 'HPSA IC50 ± SD', 67.22),
  ('COc1ccc2cc(C(C)C(=O)Nc3nc4ccccc4s3)ccc2c1 (stereo not shown) [Compound 3c]', 'HPSA IC50 ± SD', 67.71),
  ('O=c1c(O)c(-c2ccc(O)c(O)c2)oc2cc(O)cc(O)c12 [Qrc, quercetin, reference compound]', 'HPSA IC50 ± SD', 69.25),
  ('CC(C)Cc1ccc(C(C)C(=O)Nc2nc3ccccc3s2)cc1 (stereo not shown) [Compound 3a]', 'HPSA IC50 ± SD', 65.51),
  ('CC(C(=O)Nc1nc2ccccc2s1)c1ccc(-c2ccccc2)c(F)c1 (stereo not shown) [Compound 3e]', 'HPSA IC50 ± SD', 63.05);

P: CC(C(=O)Nc1nc2ccccc2s1)c1cccc(C(=O)c2ccccc2)c1 (stereo not shown) [Compound 3b]
Q: O=C1O[C@H]([C@@H](O)CO)C(O)=C1O [AA, ascorbic acid, reference compound]
In: Between P and Q , which one has the lower reported HPSA IC50 ± SD value? # reply format: chosen label
Out: Q
